- MEASUREMENT_TARGET: mouse TMEM16A mutant N546A (Mus musculus, UniProt Q8BHY3, N546A)
- Construct: expressed in transfected cells; host or cells: HEK293T
- ASSAY_DETAILS: Inside-out patch recording of 1PBC block, mutant N546A
- Type: cell-based
- EXPERIMENTAL_PARAMETERS: N546A; V -120 mV
MEASURED_ATTRIBUTE: IC50 (nM)
Dear colleague, please return just the value in nM, with no unit written.

Query (compound): N#Cc1c(C(F)(F)F)cc(O)n2c1nc1ccccc12 ; field requested: IC50 2750

---

- MEASUREMENT_TARGET: mouse TMEM16A mutant G510P (Mus musculus, UniProt Q8BHY3, G510P)
- Construct: expressed in transfected cells; host or cells: HEK293T
- ASSAY_DETAILS: Inside-out patch recording of 1PBC block, mutant G510P
- Assay type: cell-based
- EXPERIMENTAL_PARAMETERS: 60 mV; 15 µM Ca2+
MEASURED_ATTRIBUTE: pIC50
The quantity pIC50 is defined as the negative base-10 logarithm of the molar concentration.

Query (compound): N#Cc1c(C(F)(F)F)cc(O)n2c1nc1ccccc12 [1PBC] ; field requested: pIC50 4.24

---

- MEASUREMENT_TARGET: mouse TMEM16A mutant Q637A (Mus musculus, UniProt Q8BHY3, Q637A)
- Construct: expressed in transfected cells; host or cells: HEK293T
- ASSAY_DETAILS: Inside-out patch recording of 1PBC block, mutant Q637A
- Type: cell-based
- EXPERIMENTAL_PARAMETERS: Q637A; V -100 mV
MEASURED_ATTRIBUTE: IC50 (µM)
Dear colleague, please return just the value in µM, with no unit written.

Query (compound): N#Cc1c(C(F)(F)F)cc(O)n2c1nc1ccccc12 ; field requested: IC50 6.66

---

- MEASUREMENT_TARGET: mouse TMEM16A mutant Y598A (Mus musculus, UniProt Q8BHY3, Y598A)
- Construct: expressed in transfected cells; host or cells: HEK293T
- Sequence (Q8BHY3 1-960 Y598A): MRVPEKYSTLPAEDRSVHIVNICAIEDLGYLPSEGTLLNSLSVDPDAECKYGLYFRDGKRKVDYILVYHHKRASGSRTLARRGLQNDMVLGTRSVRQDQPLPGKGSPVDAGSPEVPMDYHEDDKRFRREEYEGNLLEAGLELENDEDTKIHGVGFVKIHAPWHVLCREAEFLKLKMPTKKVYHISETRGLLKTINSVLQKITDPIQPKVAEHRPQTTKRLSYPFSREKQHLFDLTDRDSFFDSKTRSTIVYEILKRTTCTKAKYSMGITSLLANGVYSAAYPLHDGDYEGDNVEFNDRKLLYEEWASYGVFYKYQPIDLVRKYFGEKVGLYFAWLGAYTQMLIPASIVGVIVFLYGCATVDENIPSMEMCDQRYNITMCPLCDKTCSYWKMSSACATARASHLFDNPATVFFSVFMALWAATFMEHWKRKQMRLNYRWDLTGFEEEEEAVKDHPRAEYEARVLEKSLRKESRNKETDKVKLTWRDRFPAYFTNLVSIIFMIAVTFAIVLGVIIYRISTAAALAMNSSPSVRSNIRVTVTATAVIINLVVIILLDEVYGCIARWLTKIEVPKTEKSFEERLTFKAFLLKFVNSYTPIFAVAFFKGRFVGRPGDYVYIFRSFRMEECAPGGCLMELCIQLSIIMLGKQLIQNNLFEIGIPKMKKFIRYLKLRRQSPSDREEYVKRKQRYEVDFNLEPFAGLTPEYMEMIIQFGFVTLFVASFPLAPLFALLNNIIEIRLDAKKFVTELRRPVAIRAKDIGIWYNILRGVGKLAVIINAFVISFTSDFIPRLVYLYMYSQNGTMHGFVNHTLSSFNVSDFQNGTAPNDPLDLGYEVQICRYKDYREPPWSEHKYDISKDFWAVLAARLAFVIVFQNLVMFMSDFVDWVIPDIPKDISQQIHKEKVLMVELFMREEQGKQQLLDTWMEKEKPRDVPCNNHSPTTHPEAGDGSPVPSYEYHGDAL
- ASSAY_DETAILS: Inside-out patch recording of 1PBC block, mutant Y598A
- Format: cell-based
- EXPERIMENTAL_PARAMETERS: -140 mV; 2 µM Ca2+
- Experimental: HEK293T cells (ATCC CRL-1573) were maintained in Dulbecco’s modified Eagle’s medium (DMEM; Sigma-Aldrich) supplemented with 10 U ml^−1 penicillin, 0.1 mg ml^−1 streptomycin (Sigma-Aldrich), 2 mM L-glutamine (Sigma-Aldrich), and 10% FBS (Sigma-Aldrich) in a humidified atmosphere containing 5% CO2 at 37 °C. […]
MEASURED_ATTRIBUTE: pIC50
The quantity pIC50 is defined as the negative base-10 logarithm of the molar concentration.

Query (molecule): N#Cc1c(C(F)(F)F)cc(O)n2c1nc1ccccc12 [1PBC] ; field requested: pIC50 4.74
